Answer each item with its documented melting point.

Ask: So what does the record say about melting point for CC(=O)c1sc(N2CCN(CC3CC3)C2=O)nc1C ?
Result: 103 to 104 °C

Ask: So what does the record say about melting point for CN(Cc1ccc2c(Br)c(OCC#N)ccc2c1)C(=O)c1oc2ccccc2c1CCc1ccccc1 ?
Result: 51 to 55 °C

Ask: So what does the record say about melting point for COC(=O)[C@H]1[C@@H](NC(=O)COc2ccccc2)C(=O)N1Cc1ccc(OC)cc1OC (relative stereo) ?
Result: 116 °C

Ask: So what does the record say about melting point for OCC1CCc2ncsc2C1 (stereo not given) ?
Result: 176 to 182 °C

Ask: So what does the record say about melting point for COC(=O)C1=C(S(N)(=O)=O)CCC1 ?
Result: 83 to 84 °C

Ask: So what does the record say about melting point for Cc1ccc2c(c1)N=C(N1CCN(C)CC1)c1cccc3ccn-2c13 ?
Result: 202 to 204 °C

Ask: So what does the record say about melting point for Clc1ccccc1-c1cccc2c1OC(CNCC1CC1)CO2 (stereo not given) ?
Result: 138 to 140 °C

Ask: So what does the record say about melting point for CCOCc1nc2c(N)nc3cc(-c4cccnc4)ccc3c2n1CCCCS(N)(=O)=O ?
Result: 250 to 252 °C

Ask: So what does the record say about melting point for CN(C)Cc1cnc(NC(=O)[C@H](CC2CCCC2)c2ccc(S(C)(=O)=O)c(Cl)c2)cn1 ?
Result: 88 to 91.5 °C

Ask: So what does the record say about melting point for CC(C)(C)OC(=O)NNc1cccc([N+](=O)[O-])c1 ?
Result: 105 °C

====

READOUT: melting point (°C)
Write the value in °C as a bare number.

Ask: So what does the record say about melting point for Cn1cncc1-c1nc(-c2cccc(Cl)c2)c2cc(C(O)(c3ccc(Cl)cc3)c3cncn3C)ccc2n1 (stereo not given) ?
Result: 160

Ask: So what does the record say about melting point for COc1ccc(C(=O)Nc2ccc(C(=O)O)cc2)cc1C(C)(C)C ?
Result: 250

Ask: So what does the record say about melting point for CCCCCCCC[C@]1(C)OO[C@@H]2C[C@H]1CC(=O)[C@@H]2C ?
Result: 27

====

Answer each item with its documented melting point.

Ask: So what does the record say about melting point for CC(C)(C)CC(C)(C)Nc1nc(NC(C)(C)CC(C)(C)C)nc(N2CC3CCC(CC3)C2)n1 ?
Result: 126 to 127 °C

Ask: So what does the record say about melting point for O=C(O)[C@H](Cc1ccccc1)NS(=O)(=O)c1ccc(Cl)cc1 ?
Result: 132 to 134 °C

Ask: So what does the record say about melting point for CC(=O)SCC(Cc1ccccc1)C(=O)Nc1ccc(C(=O)O)cc1 (stereo unspecified) ?
Result: 187 to 189 °C

Ask: So what does the record say about melting point for OCc1conc1-c1ccc(Cl)c(Cl)c1 ?
Result: 103 to 104 °C

Ask: So what does the record say about melting point for COc1ccc(S(=O)(=O)NC=NCCSCc2csc(NC=NN)n2)cc1 ?
Result: 68 to 76 °C

Ask: So what does the record say about melting point for N#Cc1ccc(-c2ccc3nncn3n2)cc1 ?
Result: 272 to 274 °C

Ask: So what does the record say about melting point for CC1(C)Oc2ccc(Br)cc2C(n2ccccc2=O)=C1CN(O)C(N)=O ?
Result: 216 °C

Ask: So what does the record say about melting point for CCCCCCCN(CCCCCSc1nc(-c2ccccc2)c(-c2ccccc2)[nH]1)c1ncnc2nc[nH]c12 ?
Result: 58 to 60 °C

Ask: So what does the record say about melting point for CC1Cc2ccc([Si](C)(C)C)c(S(=O)(=O)NC(C)(C)C)c2S1 (stereo unspecified) ?
Result: 119 to 124 °C

Ask: So what does the record say about melting point for O=C(Cc1ccc(-n2ccnc2)cc1)NOc1ccccn1 ?
Result: 110 °C

Ask: So what does the record say about melting point for CN(C)c1cccc([N+](=O)[O-])c1CC=NNC(N)=O ?
Result: 156 to 157 °C

Ask: So what does the record say about melting point for COC(=O)c1cc2n(c1)CCCC2 ?
Result: 72 to 74 °C

Ask: So what does the record say about melting point for COc1ccc(OC)c(C=CC(=O)N(C)O)c1 ?
Result: 111 to 112 °C

Ask: So what does the record say about melting point for C[C@]1(CN2CCC(NC(=O)Nc3ccc(C(F)(F)F)cc3)CC2)Cn2cc([N+](=O)[O-])nc2O1 ?
Result: 137 to 140 °C

Ask: So what does the record say about melting point for COC(=O)C1CCSc2cc(OC)c(OC)cc2C1=O (stereo unspecified) ?
Result: 132 to 133 °C

Ask: So what does the record say about melting point for COc1cc2cnnc(N3CCC(=O)CC3)c2cc1OC ?
Result: 180 to 181 °C

Ask: So what does the record say about melting point for CN(C(=O)OC(C)(C)C)[C@H]1CC[C@H](/C=C/CCl)CC1 ?
Result: 42.5 to 43.9 °C

Ask: So what does the record say about melting point for COC(=O)C1=C(C)Nc2n[nH]cc2C1c1ccccc1Cl (stereo unspecified) ?
Result: 235 °C

Ask: So what does the record say about melting point for COC(=O)C(O)C(CC(C)C)NC(=O)C(Cc1c[nH]cn1)NC(=O)C(CC(=O)N(C)C)Cc1cccc2ccccc12 (mixture of isomers) ?
Result: 117 to 121 °C

Ask: So what does the record say about melting point for CC(C)(CO)C(O)(Cn1cncn1)c1ccc(Cl)cc1 (stereo unspecified) ?
Result: 120 to 135 °C

Ask: So what does the record say about melting point for Cc1nc2c(OCc3c(Cl)ccc(N(C)C)c3Cl)cccn2c1Br ?
Result: 120 to 122 °C

====

READOUT: melting point

Ask: So what does the record say about melting point for O=C(Nc1cccc2c(-n3ccnc3)c(Br)cnc12)c1c(-n2ccnc2)cccc1-n1ccnc1 ?
Result: 175 to 185 °C

Ask: So what does the record say about melting point for Cc1c(O)c(C(C)(C)C)cc2c1CCC1C2CCC2(C)C(=O)CCC12 (centres undefined) ?
Result: 190 to 192 °C

Ask: So what does the record say about melting point for CN(CCOc1ccccc1)[C@H]1CC[C@H](c2ccc(O)cc2)CC1 ?
Result: 90 to 92 °C

Ask: So what does the record say about melting point for CCCCc1cc(OCCc2ccc(C(=O)O)cc2)c2ccccc2n1 ?
Result: 205 °C

Ask: So what does the record say about melting point for CCOC(OCC)c1cc(-n2c(=O)cc(C(F)(F)F)n(N)c2=O)ccc1Cl ?
Result: 80 to 81 °C

Ask: So what does the record say about melting point for CN1CCCCC1C(NC(=O)Nc1ccc2[nH]ncc2c1)c1cc(F)cc(Cl)c1 (centres undefined) ?
Result: 192 °C

Ask: So what does the record say about melting point for COC(=O)c1ccc(Cn2nc(OCc3ccccc3)c3ccc(NC(=O)CC4CCCC4)cc32)c(OC)c1 ?
Result: 139 to 140 °C

Ask: So what does the record say about melting point for CON=C1CCS(=O)(=O)c2c(C)cc(C(=O)O)c(C)c21 ?
Result: 169 to 171 °C

Ask: So what does the record say about melting point for O=C(NCC12CC3CC(CC(C3)C1)C2)c1cccnc1Sc1cc(O)ccc1O ?
Result: 108 to 110 °C

====

READOUT: melting point

Ask: So what does the record say about melting point for CCc1nc2ccc(Br)cc2c2ccc(F)cc12 ?
Result: 111 °C

Ask: So what does the record say about melting point for Cc1nc2c(C=O)cccn2c1Br ?
Result: 137 to 139 °C

Ask: So what does the record say about melting point for O=[N+]([O-])c1c(NCCO)cc(C(O)CSCC(O)c2cc(NCCO)c([N+](=O)[O-])c(NCCO)c2)cc1NCCO (centres undefined) ?
Result: 157 °C

Ask: So what does the record say about melting point for CCCCOc1cc2ncnc(Nc3cccc(CC)c3)c2cc1OCCOC ?
Result: 90 to 92 °C

Ask: So what does the record say about melting point for O=C(NCc1cccc([N+](=O)[O-])c1)c1ccccc1 ?
Result: 136 to 138 °C

Ask: So what does the record say about melting point for CCOCCc1c(N=[N+]=[N-])nc(NC(=O)NCC(=O)OCC)nc1-c1ccccc1 ?
Result: 130 °C

Ask: So what does the record say about melting point for CCCc1ccc(S(=O)(=O)Nc2ccc3snc(NC(C)=O)c3c2)cc1 ?
Result: 254 to 255 °C

Ask: So what does the record say about melting point for O=C1C(=O)c2ccccc2C2=C1SCC1(CCN(CC(O)Cc3ccc(Cl)cc3)CC1)O2 (centres undefined) ?
Result: 195 to 196 °C

Ask: So what does the record say about melting point for O=C(O)c1cnccc1CCCOc1cccnc1Oc1cccc(Cl)c1 ?
Result: 142 to 144 °C

Ask: So what does the record say about melting point for CCOP(=O)(/C=C/c1cn(-c2ccccc2)nc1OCc1ccc(OCc2nc(-c3cccc(OCC(=O)O)c3)oc2C)c(OC)c1)OCC ?
Result: 166 to 168 °C

Ask: So what does the record say about melting point for Nc1c(SC(F)(F)F)c(C=O)nn1-c1c(Cl)cc(C(F)(F)F)cc1Cl ?
Result: 140 to 143 °C

Ask: So what does the record say about melting point for O=C(O)c1ccc(C(Cc2ccc(F)cc2)C(=O)Nc2nc3ccccc3o2)cc1 (centres undefined) ?
Result: 199 to 201 °C

Ask: So what does the record say about melting point for Cn1ncc(C(=O)O)c1Cl ?
Result: 195 to 197 °C

Ask: So what does the record say about melting point for CSc1nn2c(N3CCN(C)CC3)cc(C)nc2c1S(=O)(=O)c1ccc(C(C)C)cc1 ?
Result: > 230 °C

Ask: So what does the record say about melting point for Cc1cc(C)cc(C(Cl)=NNc2ccccc2)c1 ?
Result: 47.5 to 48.5 °C

Ask: So what does the record say about melting point for COc1ccc2c(c1)C13CCN(C)C(C2)C1(O)CCOC3 (single isomer, unassigned; (+)) ?
Result: 108 to 110 °C

Ask: So what does the record say about melting point for COC(=O)c1cc(CCCc2coc3nc(N)nc(N)c23)cs1 ?
Result: 156 to 157 °C

Ask: So what does the record say about melting point for CCOCc1nc2c(N(Cc3ccccc3)Cc3ccccc3)nc(C)cc2n1NC(=O)OC(C)(C)C ?
Result: 139 to 141 °C

Ask: So what does the record say about melting point for C#CC[C@H](c1nc2cc(Cl)ccc2c(=O)n1Nc1ccccc1)N(CCCN)C(=O)c1cc(F)cc(F)c1F ?
Result: 168 to 170 °C

Taken from a melting point compilation (Tetko et al.; mined from patent text by program, amines drawn as free bases though some values may be those of a salt).
